B1: Azoarcus group I ribozyme (parent)
chain: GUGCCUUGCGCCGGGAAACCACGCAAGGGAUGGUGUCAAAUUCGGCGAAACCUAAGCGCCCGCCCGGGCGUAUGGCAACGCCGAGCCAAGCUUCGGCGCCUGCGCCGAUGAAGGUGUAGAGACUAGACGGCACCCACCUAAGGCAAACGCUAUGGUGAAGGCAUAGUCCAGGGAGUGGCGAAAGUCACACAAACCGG

variants of: B1; assay: reverse-splicing fitness (ratio to wild type); higher = more active; in vitro selection; Mg2+ level not given

# mut, reverse-splicing fitness
data = [
    ("C82A A111G A120C A145C C150U C169A U176C", 0.00983),
    ("C82G A111C C150G C169A", 0.00894),
    ("C82U A111G A145G C150U C169G U176C", 0.0174),
    ("C82G A111C A120U A145U C169G U176A", 0.00269),
    ("A111U C150G C169U U176C", 0.0145),
    ("C82U A111G A120U C150U C169A U176A", 0.00365),
    ("C82A A111G A120U A145C U176C", 0.0111),
    ("C82U A120U A145G U176C", 0.076),
    ("C82U A120G C150U C169A U176C", 0.014),
    ("C82G A111C A120G C150G C169A", 0.00888),
    ("C82A A111U A120C C150G C169G U176C", 0.00529),
    ("C82A A111U A120C A145G C150A", 0.013),
    ("C82U A111C A145U C150G C169U U176G", 0.00671),
    ("C82A A111U A120C C150A C169A", 0.0122),
    ("C82A A120G A145C C150G C169U", 0.00806),
    ("A111G A120U U176A", 0.432),
    ("C82U A111U A120U A145G C150G C169A", 0.00819),
    ("C82A C150A U176C", 0.0632),
    ("C82U A111C A120C C169G U176A", 0.0173),
    ("A111C A120U A145U C150U U176C", 0.215),
    ("C82U A120C A145G C169G U176C", 0.0181),
    ("C82G A111U A120C A145G C169U U176G", 0.00528),
    ("C82U A111U A120U C169A U176G", 0.00193),
    ("C82U A111C A120G A145G C150A U176C", 0.017),
    ("A111U A120G A145U C150A C169G U176G", 0.00465),
    ("A111G C150G C169U U176G", 0.00532),
    ("C82A A120U A145C U176G", 0.00979),
    ("C82A A111G A120C A145U C150U C169A U176A", 0.0157),
    ("C82U A111U A120U A145C C150U U176C", 0.00469),
    ("C82U A111C A145U C150G C169G U176A", 0.00648),
    ("C82U A111U C150A C169U U176G", 0.0075),
    ("C82U A111G A120U A145G U176G", 0.00369),
    ("C82G A120C A145G C150A C169G U176G", 0.0054),
    ("C82U A111C A120C C150A C169A U176C", 0.0136),
    ("A111U A120U A145C C150U C169G", 0.0115),
    ("C82G A111C A120U A145C C150G", 0.008),
    ("A111C A120U A145G", 0.675),
    ("A120U C150A C169A U176A", 0.00376),
    ("C82U A111C A120U A145G C150G C169A", 0.00772),
    ("C82A A111G A120C A145G C169A U176C", 0.0269),
    ("C82A A111C C150G C169G U176A", 0.00718),
    ("C82U A111C A145C C150A C169G U176G", 0.00743),
    ("C82U A145U C150G U176A", 0.0424),
    ("C82G A111C A120U C150A C169A U176A", 0.00668),
    ("C82A A145G C150U C169U U176A", 0.0129),
    ("C82A A111C A120G A145U C169G U176C", 0.012),
    ("A111U A120C A145U C150G C169G U176G", 0.00491),
    ("A145C C150U C169G U176A", 0.0403),
    ("C82A A111C A120U A145G C150G C169G", 0.00663),
    ("A111G A120G A145G C150A C169U U176C", 0.0305),
    ("C82U A120C C150A U176C", 0.0193),
    ("C82A A111G A120G A145C C150U C169A U176C", 0.00635),
    ("C82A A145C C169G U176G", 0.00402),
    ("C82A A120U C150G U176A", 0.00566),
    ("C82A A111U A145U C150U C169A U176C", 0.0108),
    ("C82A A111C A145U C150G", 0.0181),
    ("A111U A120G C150U", 0.0899),
    ("C82G A145U U176A", 0.395),
    ("C82U A111C A120G", 0.0151),
    ("C82U A111C A145C C169G U176G", 0.00669),
    ("C82A A111U A120G C150G", 0.00697),
    ("C82G A111G A120C A145C C169G U176C", 0.0182),
    ("C82A A111U A145G C150U C169A U176A", 0.016),
    ("C82A A111C A120G C150A C169U U176A", 0.018),
    ("C82A A111C A120C A145U C150U U176G", 0.00695),
    ("A111U C150A U176A", 0.207),
    ("C82U A111C A120C C150G C169U U176C", 0.0134),
    ("C82U A120G A145C C150G C169U U176C", 0.0104),
    ("C82A A111C A120C A145U C150G U176A", 0.00604),
    ("C82A A111C A120C A145G C150G C169G U176A", 0.0109),
    ("C82G A111U A120U A145C C150G C169A U176A", 0.00316),
    ("C82A A111G A120G A145C C150A C169A U176G", 0.00578),
    ("C82A A111C C150U C169U U176C", 0.0147),
]
